Test system: mice bearing PSMA-expressing LNCAP cancer xenografts
Test: Biodistribution of 68Ga-labeled compounds
Type: in vivo
Details: 3 h post-injection
measured.endpoint: Lacrimal uptake
Write the quantity with the unit trailing the number.

Req: // Lacrimal uptake lookup, key: O=C([O-])CN1CCN(CC(=O)[O-])CCN(CC(=O)NCCCC[C@H](NC(=O)CNC(=O)CCc2ccccc2)C(=O)NC[C@H]2CC[C@H](C(=O)N[C@@H](Cc3ccc4ccccc4c3)C(=O)NCCCC[C@H](NC(=O)N[C@@H](CCC(=O)O)C(=O)O)C(=O)O)CC2)CCN(CC(=O)[O-])CC1.[68Ga+3] [^68Ga-HTK03082]
Resp: 0.01 ± 0.01 % ID/g

Req: Next molecule up: O=C([O-])CN1CCN(CC(=O)[O-])CCN(CC(=O)NCCCC[C@H](NC(=O)CNC(=O)CCCc2ccc(Cl)cc2)C(=O)NC[C@H]2CC[C@H](C(=O)N[C@@H](Cc3ccc4ccccc4c3)C(=O)NCCCC[C@H](NC(=O)N[C@@H](CCC(=O)O)C(=O)O)C(=O)O)CC2)CCN(CC(=O)[O-])CC1.[68Ga+3] [^68Ga-HTK03055]
Resp: 4.14 ± 3.82 % ID/g

Req: Next molecule up: O=C([O-])CN1CCN(CC(=O)[O-])CCN(CC(=O)NCCCC[C@H](NC(=O)CNC(=O)CCCc2ccc(Br)cc2)C(=O)NC[C@H]2CC[C@H](C(=O)N[C@@H](Cc3ccc4ccccc4c3)C(=O)NCCCC[C@H](NC(=O)N[C@@H](CCC(=O)O)C(=O)O)C(=O)O)CC2)CCN(CC(=O)[O-])CC1.[68Ga+3] [^68Ga-HTK03058]
Resp: 1.44 ± 0.37 % ID/g

---

Test system: mice bearing PSMA-expressing LNCAP cancer xenografts
Test: Biodistribution of 68Ga-labeled compounds
Assay type: in vivo
Details: 3 h post-injection
Procedure: Imaging and biodistribution experiments were performed using NODSCID 1L2RyKO male mice. Mice were anesthetized by inhalation with 2% isoflurane in oxygen, and implanted subcutaneously with 1×10^7 LNCaP cells behind left shoulder. […] For biodistribution studies, the mice were injected with the radiotracer as described above. […] The collected organs/tissues were weighed and counted using an automatic gamma counter. […]
// Tumor:Blood ratio lookup, one value per entry
Just the number, please.

Here is how some compounds turned out for Tumor:Blood ratio.
Req: // Tumor:Blood ratio lookup, key: O=C([O-])CN1CCN(CC(=O)[O-])CCN(CC(=O)NCCCC[C@H](NC(=O)CNC(=O)CCCc2ccc(Br)cc2)C(=O)NC[C@H]2CC[C@H](C(=O)N[C@@H](Cc3ccc4ccccc4c3)C(=O)NCCCC[C@H](NC(=O)N[C@@H](CCC(=O)O)C(=O)O)C(=O)O)CC2)CCN(CC(=O)[O-])CC1.[68Ga+3] [^68Ga-HTK03058]
Resp: 0.67

Req: Next compound up: O=C([O-])CN1CCN(CC(=O)[O-])CCN(CC(=O)NCCCC[C@H](NC(=O)CNC(=O)CCCc2ccc(I)cc2)C(=O)NC[C@H]2CC[C@H](C(=O)N[C@@H](Cc3ccc4ccccc4c3)C(=O)NCCCC[C@H](NC(=O)N[C@@H](CCC(=O)O)C(=O)O)C(=O)O)CC2)CCN(CC(=O)[O-])CC1.[68Ga+3] [^68Ga-HTK03024]
Resp: 0.63

Req: Next compound up: Cc1ccc(CCCC(=O)NCC(=O)N[C@@H](CCCCNC(=O)CN2CCN(CC(=O)[O-])CCN(CC(=O)[O-])CCN(CC(=O)[O-])CC2)C(=O)NC[C@H]2CC[C@H](C(=O)N[C@@H](Cc3ccc4ccccc4c3)C(=O)NCCCC[C@H](NC(=O)N[C@@H](CCC(=O)O)C(=O)O)C(=O)O)CC2)cc1.[68Ga+3] [^68Ga-HTK03090]
Resp: 1.25

Req: Next compound up: O=C([O-])CN1CCN(CC(=O)[O-])CCN(CC(=O)NCCCC[C@H](NC(=O)CNC(=O)CCCc2ccc(Cl)cc2)C(=O)NC[C@H]2CC[C@H](C(=O)N[C@@H](Cc3ccc4ccccc4c3)C(=O)NCCCC[C@H](NC(=O)N[C@@H](CCC(=O)O)C(=O)O)C(=O)O)CC2)CCN(CC(=O)[O-])CC1.[68Ga+3] [^68Ga-HTK03055]
Resp: 1.75

Req: Next compound up: O=C([O-])CN1CCN(CC(=O)[O-])CCN(CC(=O)NCCCC[C@H](NC(=O)CNC(=O)CCc2ccccc2)C(=O)NC[C@H]2CC[C@H](C(=O)N[C@@H](Cc3ccc4ccccc4c3)C(=O)NCCCC[C@H](NC(=O)N[C@@H](CCC(=O)O)C(=O)O)C(=O)O)CC2)CCN(CC(=O)[O-])CC1.[68Ga+3] [^68Ga-HTK03082]
Resp: 58.1

More entries:
Req: // Tumor:Blood ratio lookup, key: O=C([O-])CN1CCN(CC(=O)[O-])CCN(CC(=O)NCC2CCC(C(=O)NC(Cc3c4ccccc4cc4ccccc34)C(=O)NCCCCC(NC(=O)NC(CCC(=O)O)C(=O)O)C(=O)O)CC2)CCN(CC(=O)[O-])CC1.[68Ga+3] (centres unmarked) [^68Ga-HTK03041]
Resp: 36.6

Req: Next compound up: Nc1ccc(CCCC(=O)NCC(=O)N[C@@H](CCCCNC(=O)CN2CCN(CC(=O)[O-])CCN(CC(=O)[O-])CCN(CC(=O)[O-])CC2)C(=O)NC[C@H]2CC[C@H](C(=O)N[C@@H](Cc3ccc4ccccc4c3)C(=O)NCCCC[C@H](NC(=O)N[C@@H](CCC(=O)O)C(=O)O)C(=O)O)CC2)cc1.[68Ga+3] [^68Ga-HTK03087]
Resp: 39.2

Req: Next compound up: O=C([O-])CN1CCN(CC(=O)[O-])CCN(CC(=O)NCCCC[C@H](NC(=O)CNC(=O)CCCc2ccc([N+](=O)[O-])cc2)C(=O)NC[C@H]2CC[C@H](C(=O)N[C@@H](Cc3ccc4ccccc4c3)C(=O)NCCCC[C@H](NC(=O)N[C@@H](CCC(=O)O)C(=O)O)C(=O)O)CC2)CCN(CC(=O)[O-])CC1.[68Ga+3] [^68Ga-HTK03089]
Resp: 13.1

Req: Next compound up: O=C([O-])CN1CCN(CC(=O)[O-])CCN(CC(=O)NCCCC[C@H](NC(=O)CNC(=O)CCCc2ccc(F)cc2)C(=O)NC[C@H]2CC[C@H](C(=O)N[C@@H](Cc3ccc4ccccc4c3)C(=O)NCCCC[C@H](NC(=O)N[C@@H](CCC(=O)O)C(=O)O)C(=O)O)CC2)CCN(CC(=O)[O-])CC1.[68Ga+3] [^68Ga-HTK03085]
Resp: 14.2

Req: Next compound up: COc1ccc(CCCC(=O)NCC(=O)N[C@@H](CCCCNC(=O)CN2CCN(CC(=O)[O-])CCN(CC(=O)[O-])CCN(CC(=O)[O-])CC2)C(=O)NC[C@H]2CC[C@H](C(=O)N[C@@H](Cc3ccc4ccccc4c3)C(=O)NCCCC[C@H](NC(=O)N[C@@H](CCC(=O)O)C(=O)O)C(=O)O)CC2)cc1.[68Ga+3] [^68Ga-HTK03086]
Resp: 4.33

Req: Next compound up: O=C([O-])CN1CCN(CC(=O)[O-])CCN(CC(=O)NCCCC[C@H](NC(=O)CNC(=O)CCCc2ccccc2)C(=O)NC[C@H]2CC[C@H](C(=O)N[C@@H](Cc3ccc4ccccc4c3)C(=O)NCCCC[C@H](NC(=O)N[C@@H](CCC(=O)O)C(=O)O)C(=O)O)CC2)CCN(CC(=O)[O-])CC1.[68Ga+3] [^68Ga-HTK03056]
Resp: 30.4

---

Tested on: mice bearing PSMA-expressing LNCAP cancer xenografts
Assay: Biodistribution of 68Ga-labeled compounds
Format: in vivo
Details: 3 h post-injection
Protocol: Imaging and biodistribution experiments were performed using NODSCID 1L2RyKO male mice. Mice were anesthetized by inhalation with 2% isoflurane in oxygen, and implanted subcutaneously with 1×10^7 LNCaP cells behind left shoulder. […] For biodistribution studies, the mice were injected with the radiotracer as described above. […] The collected organs/tissues were weighed and counted using an automatic gamma counter. […]
measured.endpoint: Liver uptake (% ID/g)
Use % ID/g as the unit, but write only the number.

Here is how some molecules turned out for Liver uptake.
Req: // Liver uptake lookup, key: O=C([O-])CN1CCN(CC(=O)[O-])CCN(CC(=O)NCCCC[C@H](NC(=O)CNC(=O)CCCc2ccc([N+](=O)[O-])cc2)C(=O)NC[C@H]2CC[C@H](C(=O)N[C@@H](Cc3ccc4ccccc4c3)C(=O)NCCCC[C@H](NC(=O)N[C@@H](CCC(=O)O)C(=O)O)C(=O)O)CC2)CCN(CC(=O)[O-])CC1.[68Ga+3] [^68Ga-HTK03089]
Resp: 0.73

Req: Next molecule up: COc1ccc(CCCC(=O)NCC(=O)N[C@@H](CCCCNC(=O)CN2CCN(CC(=O)[O-])CCN(CC(=O)[O-])CCN(CC(=O)[O-])CC2)C(=O)NC[C@H]2CC[C@H](C(=O)N[C@@H](Cc3ccc4ccccc4c3)C(=O)NCCCC[C@H](NC(=O)N[C@@H](CCC(=O)O)C(=O)O)C(=O)O)CC2)cc1.[68Ga+3] [^68Ga-HTK03086]
Resp: 1.40

Now turn to the next molecule.
Req: // Liver uptake lookup, key: O=C([O-])CN1CCN(CC(=O)[O-])CCN(CC(=O)NCCCC[C@H](NC(=O)CNC(=O)CCCc2ccccc2)C(=O)NC[C@H]2CC[C@H](C(=O)N[C@@H](Cc3ccc4ccccc4c3)C(=O)NCCCC[C@H](NC(=O)N[C@@H](CCC(=O)O)C(=O)O)C(=O)O)CC2)CCN(CC(=O)[O-])CC1.[68Ga+3] [^68Ga-HTK03056]
Resp: 0.43
